Target chain: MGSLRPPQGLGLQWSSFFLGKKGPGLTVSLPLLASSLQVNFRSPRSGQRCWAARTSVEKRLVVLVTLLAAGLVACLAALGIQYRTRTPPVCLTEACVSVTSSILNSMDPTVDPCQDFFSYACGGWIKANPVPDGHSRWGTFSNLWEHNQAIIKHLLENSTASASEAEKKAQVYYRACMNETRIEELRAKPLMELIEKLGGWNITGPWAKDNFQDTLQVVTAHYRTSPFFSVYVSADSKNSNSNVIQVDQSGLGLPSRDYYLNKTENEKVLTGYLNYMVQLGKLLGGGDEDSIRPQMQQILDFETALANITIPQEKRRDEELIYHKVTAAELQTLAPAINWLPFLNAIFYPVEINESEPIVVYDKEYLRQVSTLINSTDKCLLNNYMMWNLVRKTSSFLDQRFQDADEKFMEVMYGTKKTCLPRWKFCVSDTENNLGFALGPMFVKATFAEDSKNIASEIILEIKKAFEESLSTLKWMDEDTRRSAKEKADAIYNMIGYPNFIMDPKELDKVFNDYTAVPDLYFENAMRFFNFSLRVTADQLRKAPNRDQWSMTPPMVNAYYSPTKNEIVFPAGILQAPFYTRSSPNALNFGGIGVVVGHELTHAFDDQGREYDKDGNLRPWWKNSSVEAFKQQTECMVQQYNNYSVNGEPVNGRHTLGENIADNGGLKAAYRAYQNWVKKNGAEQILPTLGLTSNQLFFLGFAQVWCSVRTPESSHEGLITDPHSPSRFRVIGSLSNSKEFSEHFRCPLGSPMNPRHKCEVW
measureName: IC50 (nM)
Please respond with the number in nM and leave the unit unwritten.

The compound listed as O=P(O)(O)CN[C@@H](Cc1ccc(-c2ccccc2)cc1)c1nnn[nH]1 has a reported IC50 of 1100

----------
Examples of compounds with documented log10 Activity follow.
Target: Neprilysin (Rattus norvegicus) (UniProt P07861)
Sequence (P07861 whole entry): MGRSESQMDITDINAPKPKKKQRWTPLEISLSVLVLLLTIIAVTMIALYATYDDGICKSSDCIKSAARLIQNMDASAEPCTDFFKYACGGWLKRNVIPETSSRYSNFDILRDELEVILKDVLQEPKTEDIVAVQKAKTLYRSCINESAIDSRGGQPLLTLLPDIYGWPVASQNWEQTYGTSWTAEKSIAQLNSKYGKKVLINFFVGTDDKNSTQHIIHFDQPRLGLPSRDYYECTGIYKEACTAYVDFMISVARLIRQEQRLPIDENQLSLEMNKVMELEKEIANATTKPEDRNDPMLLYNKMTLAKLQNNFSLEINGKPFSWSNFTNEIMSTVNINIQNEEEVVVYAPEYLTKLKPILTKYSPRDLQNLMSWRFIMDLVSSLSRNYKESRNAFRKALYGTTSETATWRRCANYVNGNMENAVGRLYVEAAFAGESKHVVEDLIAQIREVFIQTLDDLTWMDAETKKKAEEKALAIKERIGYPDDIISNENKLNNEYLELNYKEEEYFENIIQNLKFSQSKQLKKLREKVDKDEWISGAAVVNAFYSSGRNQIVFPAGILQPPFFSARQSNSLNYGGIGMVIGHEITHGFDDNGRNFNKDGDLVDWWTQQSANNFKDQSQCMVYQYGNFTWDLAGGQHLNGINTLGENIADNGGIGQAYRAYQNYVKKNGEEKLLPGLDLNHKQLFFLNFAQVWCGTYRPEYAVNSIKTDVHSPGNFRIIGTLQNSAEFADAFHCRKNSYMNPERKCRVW
Test: Concentration required to inhibit the activity against neutral endopeptidase generated in plasma after oral administration of 30 mg/kg at 1 hr interval during 6 hrs, in an Ex vivo assay
Type: functional, organism-based
Design: dose 30 mg/kg
Quick note: numbers are log10 of Activity, with µM as the unit.

Example compounds with recorded log10 Activity:
* O=P(CN[C@@H](Cc1ccc(-c2ccccc2)cc1)c1nnn[nH]1)(Oc1ccccc1)Oc1ccccc1 | 0.72
* O=C(O)[C@H](Cc1ccc(-c2ccccc2)cc1)NCP(=O)(Oc1ccccc1)Oc1ccccc1 | 0.20

Item Cc1cccc(OP(=O)(CN[C@@H](Cc2ccc(-c3ccccc3)cc2)C(=O)O)Oc2cccc(C)c2)c1 was tested on Neprilysin (Rattus norvegicus) (UniProt P07861); the reported log10 Activity is -0.10

Item COP(=O)(CN[C@@H](Cc1ccc(-c2ccccc2)cc1)c1nnn[nH]1)OC was tested on Neprilysin (Rattus norvegicus) (UniProt P07861); the reported log10 Activity is -2.00

----------
Molecular target: Neprilysin (Rattus norvegicus) (UniProt P07861)
Test: Concentration required to inhibit the activity against neutral endopeptidase generated in plasma after oral administration of 30 mg/kg at 1 hr interval during 6 hrs, in an Ex vivo assay
Type: functional, organism-based
Design: dose 30 mg/kg
measureName: Activity (µM)
Please respond with the number in µM and leave the unit unwritten.

Example compounds with recorded Activity:
- CCOC(=O)COP(=O)(CN[C@@H](Cc1ccc(-c2ccccc2)cc1)c1nnn[nH]1)OCC(=O)OCC: 0.45
- Cc1cc(C)cc(OP(=O)(CN[C@@H](Cc2ccc(-c3ccccc3)cc2)C(=O)O)Oc2cc(C)cc(C)c2)c1: 0.9

The compound listed as O=P(O)(CN[C@@H](Cc1ccc(-c2ccccc2)cc1)c1nnn[nH]1)Oc1ccccc1 has a reported Activity of 0.19

The compound listed as Cc1cc(C)cc(OP(=O)(CN[C@@H](Cc2ccc(-c3ccccc3)cc2)c2nnn[nH]2)Oc2cc(C)cc(C)c2)c1 has a reported Activity of 0.36

The compound listed as CCOC(=O)COP(=O)(CN[C@@H](Cc1ccc(-c2ccccc2)cc1)C(=O)O)OCC(=O)OCC has a reported Activity of 1.1
